experiment description: Ocular tissue concentrations (aqueous humor, vitreous humor, iris, retina, choroid, cornea) after topical ocular, subcutaneous and intravitreal administration
Format: in vivo, New Zealand White rabbits
condition: New Zealand White, rabbit, iris, subcutaneous, 5 mg/kg/dose, TABLE 16: Iris, 4 hr, OS; free acid, subcutaneous 5 mg/kg/dose, Group 3; read-out: Iris Conc. (ng/g) OS

>  <chem smiles>
COC(=O)N[C@@H](Cc1ccccc1)C(=O)N[C@@H](Cc1ccc(NS(=O)(=O)O)cc1)c1csc(-c2cccs2)n1

>  <units label>
ng/g

>  <concentration at 4 h>
16.9

$$$$

###

experiment description: Ocular tissue concentrations (aqueous humor, vitreous humor, iris, retina, choroid, cornea) after topical ocular, subcutaneous and intravitreal administration
Type: in vivo, New Zealand White rabbits
condition: New Zealand White, rabbit, retina, subcutaneous, 5 mg/kg/dose, Retina, 4 hr; free acid, subcutaneous 5 mg/kg/dose, Group 3; read-out: Retina Average
measured quantity: concentration at 4 h

>  <chem smiles>
COC(=O)N[C@@H](Cc1ccccc1)C(=O)N[C@@H](Cc1ccc(NS(=O)(=O)O)cc1)c1csc(-c2cccs2)n1

>  <observed measurement>
35.3 ng/g

$$$$

###

experiment description: Ocular tissue concentrations (aqueous humor, vitreous humor, iris, retina, choroid, cornea) after topical ocular, subcutaneous and intravitreal administration
Type: in vivo, New Zealand White rabbits
condition: New Zealand White, rabbit, choroid, subcutaneous, 5 mg/kg/dose, Choroid, 1 hr; sodium salt, subcutaneous 5 mg/kg/dose, Group 2; read-out: Choroid Average

>  <chem smiles>
COC(=O)N[C@@H](Cc1ccccc1)C(=O)N[C@@H](Cc1ccc(NS(=O)(=O)O)cc1)c1csc(-c2cccs2)n1

>  <concentration at 1 h, ng/g>
200

$$$$

###

experiment description: Ocular tissue concentrations (aqueous humor, vitreous humor, iris, retina, choroid, cornea) after topical ocular, subcutaneous and intravitreal administration
Assay type: in vivo, New Zealand White rabbits
condition: New Zealand White, rabbit, retina, subcutaneous, 5 mg/kg/dose, Retina, 4 hr; sodium salt, subcutaneous 5 mg/kg/dose, Group 2; read-out: Retina Average

>  <compound>
COC(=O)N[C@@H](Cc1ccccc1)C(=O)N[C@@H](Cc1ccc(NS(=O)(=O)O)cc1)c1csc(-c2cccs2)n1 [Compound 1]

>  <concentration at 4 h (ng/g)>
19.7

$$$$

###

experiment description: Ocular tissue concentrations (aqueous humor, vitreous humor, iris, retina, choroid, cornea) after topical ocular, subcutaneous and intravitreal administration
Format: in vivo, New Zealand White rabbits
condition: New Zealand White, rabbit, retina, subcutaneous, 5 mg/kg/dose, Retina, 1 hr, OD; sodium salt, subcutaneous 5 mg/kg/dose, Group 2; read-out: Retina Conc. (ng/g) OD

>  <compound>
COC(=O)N[C@@H](Cc1ccccc1)C(=O)N[C@@H](Cc1ccc(NS(=O)(=O)O)cc1)c1csc(-c2cccs2)n1 [Compound 1]

>  <concentration at 1 h>
22.4 ng/g

$$$$

###

experiment description: Ocular tissue concentrations (aqueous humor, vitreous humor, iris, retina, choroid, cornea) after topical ocular, subcutaneous and intravitreal administration
Type: in vivo, New Zealand White rabbits
condition: New Zealand White, rabbit, iris, subcutaneous, 5 mg/kg/dose, Iris, 4 hr, OD; sodium salt, subcutaneous 5 mg/kg/dose, Group 2; read-out: Iris Conc. (ng/g) OD
measured quantity: concentration at 4 hr (ng/g)

>  <compound>
COC(=O)N[C@@H](Cc1ccccc1)C(=O)N[C@@H](Cc1ccc(NS(=O)(=O)O)cc1)c1csc(-c2cccs2)n1 [Compound 1]

>  <measured quantity>
concentration at 4 hr

>  <units label>
ng/g

>  <observed measurement>
33.8

$$$$
